# System tested: T1, Ala mutant having 3-amino acid substitution, SEQ ID NO: 49 (human)
# T1 sequence (peptide): EENMDDQWMQDEMEIAA
# Measurement notes: ELISA, peptide on plate (10 ug/mL)
Readout kind: absorbance 490 nm/630 nm (OD)
Number in OD, nothing else.

Field request: absorbance 490 nm/630 nm | item: A11 (antibody, IgG1, V domains shown) VH: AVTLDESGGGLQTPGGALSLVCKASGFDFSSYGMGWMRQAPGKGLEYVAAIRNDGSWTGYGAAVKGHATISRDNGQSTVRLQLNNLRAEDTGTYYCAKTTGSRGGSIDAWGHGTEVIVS VL: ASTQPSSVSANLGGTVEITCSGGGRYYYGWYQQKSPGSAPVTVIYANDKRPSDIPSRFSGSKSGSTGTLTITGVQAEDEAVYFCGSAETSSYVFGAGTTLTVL
1.89

Form field: reported absorbance 490 nm/630 nm of G9 (antibody, IgG1, V domains shown) VH: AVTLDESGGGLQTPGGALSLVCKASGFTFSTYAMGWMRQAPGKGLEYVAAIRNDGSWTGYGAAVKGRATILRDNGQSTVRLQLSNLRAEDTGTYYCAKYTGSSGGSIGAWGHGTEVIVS VL: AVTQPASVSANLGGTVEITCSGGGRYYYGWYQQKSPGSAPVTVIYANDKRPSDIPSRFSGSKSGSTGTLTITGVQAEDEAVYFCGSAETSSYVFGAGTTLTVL
1.92

I would be grateful if you could share the reported absorbance 490 nm/630 nm for G8 (antibody, IgG1, V domains shown) VH: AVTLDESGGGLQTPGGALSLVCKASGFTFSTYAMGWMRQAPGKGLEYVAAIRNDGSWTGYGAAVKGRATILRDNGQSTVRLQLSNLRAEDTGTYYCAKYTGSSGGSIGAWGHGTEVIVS VL: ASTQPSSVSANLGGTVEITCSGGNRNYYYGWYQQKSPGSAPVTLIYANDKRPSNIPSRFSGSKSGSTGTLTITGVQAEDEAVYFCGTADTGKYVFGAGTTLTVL .
1.86

Which absorbance 490 nm/630 nm is listed for G6 (antibody, IgG1, V domains shown) VH: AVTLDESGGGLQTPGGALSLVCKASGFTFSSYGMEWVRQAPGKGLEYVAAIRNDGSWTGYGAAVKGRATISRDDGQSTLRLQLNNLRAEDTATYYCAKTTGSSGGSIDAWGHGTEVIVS VL: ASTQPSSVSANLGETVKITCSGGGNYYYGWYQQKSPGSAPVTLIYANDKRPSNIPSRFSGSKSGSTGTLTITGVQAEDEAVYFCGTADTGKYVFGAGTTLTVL ?
1.88

Returns the measured absorbance 490 nm/630 nm for the input binder. Input: H7 (antibody, IgG1, V domains shown) VH: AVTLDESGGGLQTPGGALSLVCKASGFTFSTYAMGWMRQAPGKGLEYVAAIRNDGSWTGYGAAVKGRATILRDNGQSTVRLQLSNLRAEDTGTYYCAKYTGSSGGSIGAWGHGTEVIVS VL: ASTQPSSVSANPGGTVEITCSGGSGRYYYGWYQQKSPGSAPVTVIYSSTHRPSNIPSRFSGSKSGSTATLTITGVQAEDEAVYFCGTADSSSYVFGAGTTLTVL
1.86

Record request: absorbance 490 nm/630 nm value, item E9 (antibody, IgG1, V domains shown) VH: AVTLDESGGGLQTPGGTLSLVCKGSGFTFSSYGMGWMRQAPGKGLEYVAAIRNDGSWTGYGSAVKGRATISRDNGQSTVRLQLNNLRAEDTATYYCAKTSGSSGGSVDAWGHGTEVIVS VL: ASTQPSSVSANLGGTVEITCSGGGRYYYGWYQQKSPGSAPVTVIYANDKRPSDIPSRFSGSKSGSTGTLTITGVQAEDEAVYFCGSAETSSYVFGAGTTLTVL
1.85
